All values here come from patent US6291485A.

# assayed_system: ETB receptor (Homo sapiens)
# Sequence (P24530 27-442): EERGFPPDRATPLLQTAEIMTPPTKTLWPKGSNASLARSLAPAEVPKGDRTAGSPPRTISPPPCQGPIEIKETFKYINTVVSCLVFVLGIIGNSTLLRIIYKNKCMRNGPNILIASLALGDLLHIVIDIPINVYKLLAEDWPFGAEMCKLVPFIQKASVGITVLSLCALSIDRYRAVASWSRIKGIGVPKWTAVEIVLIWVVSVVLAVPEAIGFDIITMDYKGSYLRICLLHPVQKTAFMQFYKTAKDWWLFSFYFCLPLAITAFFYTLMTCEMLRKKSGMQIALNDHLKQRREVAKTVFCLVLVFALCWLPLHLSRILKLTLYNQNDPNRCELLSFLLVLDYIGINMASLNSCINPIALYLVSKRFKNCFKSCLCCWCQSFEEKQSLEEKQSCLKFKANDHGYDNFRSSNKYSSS
reported_property: IC50 (nM)

>  <compound>
CCOc1cccc(Cn2nc(C(=O)O)c3c2-c2ccc(OCc4cncnc4)cc2CC3)c1 [Example 14]

>  <assayed_system>
ETB receptor (Homo sapiens)

>  <quantitative_result>
115

$$$$
>  <compound>
CCOc1cccc(C(CC)n2nc(C(=O)O)c3c2-c2ccc(OCc4cncnc4)cc2CC3)c1 (stereo not drawn) [Example 34]

>  <assayed_system>
ETB receptor (Homo sapiens)

>  <quantitative_result>
153

$$$$
>  <compound>
CCOc1cccc(C(c2ccccn2)n2nc(C(=O)O)c3c2-c2ccc(OCc4cncnc4)cc2CC3)c1 (stereo not drawn) [Example 70]

>  <assayed_system>
ETB receptor (Homo sapiens)

>  <quantitative_result>
11.3

$$$$
